System: KM20L2 colon
Assay notes: NCI tumour cell line growth inhibition, 48 h
Measure: TGI

Molecule	Measured target	Reported result
Cc1cc(O)c2c(c1)C(=O)c1cc(O)cc(O)c1C2=O	KM20L2 colon	> 100 µM
CC1=C(C(=O)Nc2ccccc2C)C(c2ccc([N+](=O)[O-])cc2)C(C(=O)Nc2ccccc2C)=C(C)N1	KM20L2 colon	> 100 µM
COC(=O)c1ccccc1NC(=O)C(=O)CC(=O)c1ccccc1NC1=CC(=O)C(=O)c2ccccc21	KM20L2 colon	> 100 µM
NC(=O)c1[nH]nc(C2OC(CO)C(O)C2O)c1O (centres undefined)	KM20L2 colon	> 5000 µM
COC(=O)[C@@H]1c2cc3c(c(O)c2[C@@H](OC)C[C@@]1(C)O)C(=O)c1c(O)cc2c(c1C3=O)OC1O[C@@]2(C)[C@H](O)[C@@H](N(C)C)[C@@H]1O	KM20L2 colon	0.794 µM
CCc1cccc(C(C)C)c1NC(=O)C(=O)C(C(=O)C(=O)OC)c1nc2ccccc2[nH]c1=O (centres undefined)	KM20L2 colon	> 100 µM
COC(=O)C1=C(C(=O)OC)C23C=CC=CC24C(C(=O)OC)=C(C(=O)OC)C4C1C3 (centres undefined)	KM20L2 colon	> 100 µM
CN(C)CCNCc1c2ccccc2c(CNCCN(C)C)c2ccccc12	KM20L2 colon	26 µM
CC1C=C(OC(=O)c2ccccc2)C(=O)C(n2cc(F)c(=O)n(C(=O)c3ccccc3)c2=O)O1 (centres undefined)	KM20L2 colon	81.9 µM
